Assay Target: full-length human PIKFYVE (Homo sapiens (Human), UniProt Q9Y2I7, L932S/Q1183K/Q995L/S1033A/S696N/T998S)
Sequence (Q9Y2I7 whole entry S696N/L932S/Q995L/T998S/S1033A/Q1183K): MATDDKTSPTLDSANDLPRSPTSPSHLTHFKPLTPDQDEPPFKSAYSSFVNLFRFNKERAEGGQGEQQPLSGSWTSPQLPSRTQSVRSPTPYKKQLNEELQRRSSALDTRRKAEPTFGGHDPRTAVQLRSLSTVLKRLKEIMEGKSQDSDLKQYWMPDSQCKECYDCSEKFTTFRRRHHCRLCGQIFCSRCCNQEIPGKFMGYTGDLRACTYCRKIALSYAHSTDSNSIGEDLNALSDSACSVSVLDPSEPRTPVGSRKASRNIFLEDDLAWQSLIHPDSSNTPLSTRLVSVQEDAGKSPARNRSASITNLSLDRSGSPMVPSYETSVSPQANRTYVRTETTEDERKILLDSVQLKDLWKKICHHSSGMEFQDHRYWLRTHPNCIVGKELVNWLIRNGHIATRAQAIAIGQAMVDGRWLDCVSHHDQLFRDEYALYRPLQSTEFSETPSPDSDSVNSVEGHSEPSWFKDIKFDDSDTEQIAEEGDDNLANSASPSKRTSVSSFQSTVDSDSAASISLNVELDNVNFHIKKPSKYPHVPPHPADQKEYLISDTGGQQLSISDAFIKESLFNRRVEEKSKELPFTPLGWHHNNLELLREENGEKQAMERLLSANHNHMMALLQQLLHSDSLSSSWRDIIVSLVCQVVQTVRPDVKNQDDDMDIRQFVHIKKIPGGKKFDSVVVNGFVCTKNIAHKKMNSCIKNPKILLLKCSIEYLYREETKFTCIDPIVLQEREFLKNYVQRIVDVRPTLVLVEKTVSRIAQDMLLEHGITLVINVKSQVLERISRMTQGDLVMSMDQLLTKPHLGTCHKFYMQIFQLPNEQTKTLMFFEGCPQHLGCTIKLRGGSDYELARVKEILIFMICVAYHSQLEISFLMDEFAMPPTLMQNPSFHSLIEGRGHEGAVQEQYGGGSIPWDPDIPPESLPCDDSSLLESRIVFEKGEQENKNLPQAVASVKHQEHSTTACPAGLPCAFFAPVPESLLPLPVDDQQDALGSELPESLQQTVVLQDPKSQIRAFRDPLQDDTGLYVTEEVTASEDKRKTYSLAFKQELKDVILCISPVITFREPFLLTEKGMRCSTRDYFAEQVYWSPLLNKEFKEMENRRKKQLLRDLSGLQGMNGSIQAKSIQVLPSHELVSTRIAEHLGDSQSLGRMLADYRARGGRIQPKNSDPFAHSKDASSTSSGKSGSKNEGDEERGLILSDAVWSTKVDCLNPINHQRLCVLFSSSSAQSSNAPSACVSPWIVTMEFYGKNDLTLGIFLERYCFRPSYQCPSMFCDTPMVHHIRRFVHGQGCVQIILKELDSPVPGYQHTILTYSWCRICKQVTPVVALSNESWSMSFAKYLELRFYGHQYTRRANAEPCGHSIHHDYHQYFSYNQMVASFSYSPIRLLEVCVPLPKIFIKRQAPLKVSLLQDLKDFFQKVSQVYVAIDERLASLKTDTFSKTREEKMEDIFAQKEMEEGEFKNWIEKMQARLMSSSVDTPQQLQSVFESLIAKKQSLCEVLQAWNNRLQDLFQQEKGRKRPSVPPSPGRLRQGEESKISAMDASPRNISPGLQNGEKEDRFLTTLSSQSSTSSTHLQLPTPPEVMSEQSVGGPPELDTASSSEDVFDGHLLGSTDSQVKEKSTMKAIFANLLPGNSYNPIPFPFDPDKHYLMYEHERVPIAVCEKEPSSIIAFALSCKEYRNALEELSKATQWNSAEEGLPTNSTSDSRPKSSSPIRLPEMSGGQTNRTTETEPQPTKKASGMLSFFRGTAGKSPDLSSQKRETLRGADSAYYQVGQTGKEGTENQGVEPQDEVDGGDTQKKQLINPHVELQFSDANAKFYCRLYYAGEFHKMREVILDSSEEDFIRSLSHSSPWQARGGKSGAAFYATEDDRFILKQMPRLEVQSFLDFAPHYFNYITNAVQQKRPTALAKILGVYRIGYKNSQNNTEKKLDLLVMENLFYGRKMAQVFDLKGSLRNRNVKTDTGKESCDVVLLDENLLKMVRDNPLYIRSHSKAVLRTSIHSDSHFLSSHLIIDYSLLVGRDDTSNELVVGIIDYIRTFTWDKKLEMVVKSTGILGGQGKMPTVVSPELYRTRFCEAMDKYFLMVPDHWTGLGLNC
Procedure Details: PIKfyve biochemical assay (ADP-Glo Kinase assay, Carna Biosciences)
Measurement Setup: ADP-Glo, GST-PIKFYVE, 10 μM to 3 nM; read-out: hPIKfyve IC50
Method: PIKfyve Biochemical Assay. The biochemical PIKFyve inhibition assays were run by Carna Biosciences according to proprietary methodology based on the Promega ADP-Glo™ Kinase assay. […] The kinase activity was evaluated by detecting relative light units on a luminescence plate reader. […] IC50 values were calculated from concentration vs % inhibition curves by fitting to a four-parameter logistic curve. […]
pIC50: −log10 of the molar value.
Result Type: pIC50

## Input Specify measured pIC50 for Cn1c(-c2ccncc2)nc2c(N3CCOCC3)nc(-c3ccn(-c4ccccc4)n3)nc21 .
## Output 7.00 to 8.00

## Input Specify measured pIC50 for Cn1c(-c2ccncc2)nc2c(N3CCOCC3)nc(-c3ccc(Cl)cn3)nc21 .
## Output 7.00 to 8.00

## Input Specify measured pIC50 for Cn1c(-c2ccncc2)nc2c(N3CCOCC3)nc(C3CC3)nc21 .
## Output > 8.00

====

Please respond with reported IC50 for every item in the list.
Assay Target: full-length human PIKFYVE (Homo sapiens (Human), UniProt Q9Y2I7, L932S/Q1183K/Q995L/S1033A/S696N/T998S)
Procedure Details: PIKfyve biochemical assay (ADP-Glo Kinase assay, Carna Biosciences)
Measurement Setup: ADP-Glo, GST-PIKFYVE, 10 μM to 3 nM; read-out: hPIKfyve IC50

## Input Specify measured IC50 for Cn1c(-c2ccncc2)nc2c(N3CCOCC3)nc(-c3cccc(C4CCNCC4)n3)nc21 .
## Output 10 to 100 nM

## Input Specify measured IC50 for Cn1c(C2=CCOCC2)nc2c(N3CCOCC3)nc(-n3ccc(-c4cccc(C#N)c4)n3)nc21 .
## Output 1000 to 10000 nM

## Input Specify measured IC50 for Cn1c(C2CCNCC2)nc2c(N3CCOCC3)nc(-c3ccc4c(c3)OCCO4)nc21 .
## Output < 10 nM

## Input Specify measured IC50 for Cn1c(-c2ccncc2)nc2c(N3CCOCC3)nc(-c3ccn(C4CCCNC4)n3)nc21 (stereo not shown) .
## Output 100 to 1000 nM

## Input Specify measured IC50 for Cn1c(-c2ccncc2)nc2c(N3CCOCC3)nc(-n3ccc(C4CCOCC4)n3)nc21 .
## Output 100 to 1000 nM

## Input Specify measured IC50 for Cn1c(-c2ccncc2)nc2c(N3CCOCC3)nc(-n3ccc(C4CC5(CNC5)C4)n3)nc21 .
## Output 10 to 100 nM

## Input Specify measured IC50 for c1ccc(-c2nccc(-c3nc(N4CCOCC4)c4cc(-c5ccncc5)sc4n3)n2)cc1 .
## Output 10 to 100 nM

## Input Specify measured IC50 for Cn1c(-c2ccncc2)nc2c(N3CCOCC3)nc(NC3CCCC3)nc21 .
## Output 10 to 100 nM

## Input Specify measured IC50 for Cn1c(-c2ccncc2)nc2c(N3CCOCC3)nc(-c3ccnc(C4CCNCC4)n3)nc21 .
## Output < 10 nM

## Input Specify measured IC50 for Cn1c(-c2ccncc2)nc2c(N3CCOCC3)nc(-c3noc(-c4ccccc4)n3)nc21 .
## Output 10 to 100 nM

## Input Specify measured IC50 for Cn1c(-c2ccncc2)nc2c(N3CCOCC3)nc(-n3ccc(C4CCNCC4)n3)nc21 .
## Output 10 to 100 nM

## Input Specify measured IC50 for Cn1c(-c2ccncc2)nc2c(N3CCOCC3)nc(-n3ccc(-c4cccnc4)n3)nc21 .
## Output 10 to 100 nM

## Input Specify measured IC50 for Cn1c(-c2ccncc2)nc2c(N3CCOCC3)nc(-c3cccc(C4CCN(C(=O)OC(C)(C)C)CC4)n3)nc21 .
## Output 100 to 1000 nM
